- PROCEDURE_SUMMARY: Drug potency, peptide loading and size of coacervated particles
- Format: physicochemical
- SETTINGS: formulation 1 particles (coacervation), blend; measured by fluorescence
VALUE_KIND: Peptide (level of peptide coated onto the particles) (µL/mg)
Numeric only. Scale: µL/mg

- RECORD_SEQUENCE: "SPCGGSWGRFMQGGLFGGRTDGCGAHRNRTSASLEPPSSDY [SNi34]"
  UNIT_OF_MEASURE: "µL/mg"
  MEASURED_NUMBER: 4.03
- RECORD_SEQUENCE: "RVGQCTDSDVRRPWARSCAHQGCGAGTRNSHGCITRPLRQASAH [SNi10]"
  UNIT_OF_MEASURE: "µL/mg"
  MEASURED_NUMBER: 1.75

Query :: Field request: Peptide (level of peptide coated onto the particles) | item: RYKHDIGCDAGVDKKSSSVRGGCGAHSSPPRAGRGPRGTMVSRL [DCX8]
Result :: 1.87

Query :: Now consider STPPSREAYSRPYSVDSDSDTNAKHSSHNRRLRTRSRPN [PAX2] and answer again.
Result :: 3.51

Query :: Try this sequence too: SARDSGPAEDGSRAVRLNGVENANTRKSSRSNPRGRRHP [Peptide P31]
Result :: 1.22

Query :: Also check SDHALGTNLRSDNAKEPGDYNCCGNGNSTGRKVFNRRRPSAIPT [HAX42]
Result :: 2.93

Query :: Same read-out for RGSTGTAGGERSGVLNLHTRDNASGSGFKPWYPSNRGHK [Peptide 5PAX5] ?
Result :: 2.83
